molecular target: MtHISN2 (Medicago truncatula); construct: N-truncated at Val49 (chloroplast transit peptide removed), residues 49-283, N-terminal Ser-Asn-Ala linker left, His6-tag cleaved with TEV; E. coli BL21 Gold; both PRA-CH and PRA-PH domains; test: isothermal titration calorimetry
Reported metric: Kd (µM)
Return type: number; implicit unit µM.

Can you share its Kd? I mean this compound: Nc1ncnc2c1ncn2[C@@H]1O[C@H](COP(=O)(O)O)[C@@H](O)[C@H]1O
47

====

target: MtHISN2 (Medicago truncatula, UniProt A0A072U2X9, K109A); construct: gene MTR_7g084480; N-truncated at Val49 (chloroplast transit peptide removed), residues 49-283, N-terminal Ser-Asn-Ala linker left, His6-tag cleaved with TEV; E. coli BL21 Gold; both PRA-CH and PRA-PH domains; assay: isothermal titration calorimetry; format: binding
Sequence (A0A072U2X9 entry or part of it K109A): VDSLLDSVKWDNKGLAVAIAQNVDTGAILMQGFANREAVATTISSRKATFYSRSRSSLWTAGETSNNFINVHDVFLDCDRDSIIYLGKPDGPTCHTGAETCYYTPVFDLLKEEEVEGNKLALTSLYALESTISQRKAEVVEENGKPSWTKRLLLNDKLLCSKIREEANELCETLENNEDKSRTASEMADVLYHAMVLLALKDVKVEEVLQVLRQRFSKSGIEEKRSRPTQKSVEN
Reported metric: pKd
Scale: pKd equals -log10([C]), with [C] in mol/L.

Can you share its pKd? I mean this compound: Nc1ncnc2c1ncn2[C@@H]1O[C@H](COP(=O)(O)O)[C@@H](O)[C@H]1O
4.15
